Each item that follows carries a reported selectivity ratio.
# System: beta5 subunit of human 20S immunoproteasome
# protocol details: Selectivity ratio of IC50 for human beta5 20S immunoproteasome to IC50 for Plasmodium falciparum 20S proteasome beta5 subunit
# Assay type: toxicity
# condition set: read-out: Ratio IC50

Cc1ccc(S(=O)(=O)N[C@@H](CC(=O)NC(C)(C)C)C(=O)NCCNC(=O)c2cccc(C(C)C)c2)cc1 = 5
Cc1ccc(S(=O)(=O)N[C@@H](CC(=O)NC(C)(C)C)C(=O)NCCNC(=O)c2cc(Cl)ccc2Cl)cc1 = 28.7
Cc1ccc(S(=O)(=O)N[C@@H](CC(=O)NC(C)(C)C)C(=O)NCCNC(=O)c2ccccc2Cl)cc1 = 6.6
Cc1ccc(S(=O)(=O)N[C@@H](CC(=O)NC(C)(C)C)C(=O)NCCNC(=O)c2ccc(Cl)cc2)cc1 = 0.3
Cc1ccc(S(=O)(=O)N[C@@H](CC(=O)NC(C)(C)C)C(=O)NCCNC(=O)c2ccccc2O)cc1 = 4
Cc1ccc(S(=O)(=O)N[C@@H](CC(=O)NC(C)(C)C)C(=O)NCCNC(=O)c2ccccc2F)cc1 = 5.3
Cc1ccc(S(=O)(=O)N[C@@H](CC(=O)NC(C)(C)C)C(=O)NCCNC(=O)c2cccc(F)c2)cc1 = 4.3
Cc1ccc(S(=O)(=O)N[C@@H](CC(=O)NC(C)(C)C)C(=O)NCCNC(=O)Nc2ccccc2)cc1 = 0.8

Could you share which selectivity ratio value was measured for Cc1ccc(S(=O)(=O)N[C@@H](CC(=O)NC(C)(C)C)C(=O)NCCNC(=O)c2cc(C)ccn2)cc1 ?
4.9

What do you have for Cc1ccc(S(=O)(=O)N[C@@H](CC(=O)NC(C)(C)C)C(=O)NCCNC(=O)c2ccccc2)cc1 ?
4.8

// repeat for Cc1ccc(S(=O)(=O)N[C@@H](CC(=O)NC(C)(C)C)C(=O)NCCNC(=O)c2c(O)cccc2F)cc1 and report
1.8

Again, but for Cc1ccc(S(=O)(=O)N[C@@H](CC(=O)NC(C)(C)C)C(=O)NCCNC(=O)c2cc(C)ccc2F)cc1
19

====

# microsomal CLint annotations
# protocol details: Clearance in human liver microsomes
# Format: ADME, Microsome
# condition set: read-out: CLH
Your answer is read as µL/min/mg, so omit the unit and give the number.

Field: example entries. Status: answers known.
Cc1ccc(S(=O)(=O)N[C@@H](CC(=O)NC(C)(C)C)C(=O)NCCNC(=O)c2ccc(F)cc2)cc1 = 149
C#Cc1cccc(C(=O)NCCNC(=O)[C@H](CC(=O)NC(C)(C)C)NS(=O)(=O)c2ccc(C)cc2)c1 = 61
Cc1ccc(S(=O)(=O)N[C@@H](CC(=O)NC(C)(C)C)C(=O)NCCNC(=O)c2ccccc2F)cc1 = 141

So what's the measured microsomal CLint for this one? COc1cccc(C(=O)NCCNC(=O)[C@H](CC(=O)NC(C)(C)C)NS(=O)(=O)c2ccc(C)cc2)c1
202

Further, for Cc1ccc(S(=O)(=O)N[C@@H](CC(=O)NC(C)(C)C)C(=O)NCCNC(=O)c2ccccc2)cc1 ?
122

====

# protocol details: Permeability of the compound at pH 7.4 by PAMPA
# Assay type: ADME
# condition set: read-out: permeability
readout label: Papp

The following compounds have reported results that may help.
Cc1ccc(S(=O)(=O)N[C@@H](CC(=O)NC(C)(C)C)C(=O)NCCNC(=O)c2ccccc2)cc1 = 13.7 ×10⁻⁶ cm/s
C#Cc1cccc(C(=O)NCCNC(=O)[C@H](CC(=O)NC(C)(C)C)NS(=O)(=O)c2ccc(C)cc2)c1 = 20.3 ×10⁻⁶ cm/s
COc1cccc(C(=O)NCCNC(=O)[C@H](CC(=O)NC(C)(C)C)NS(=O)(=O)c2ccc(C)cc2)c1 = 15.9 ×10⁻⁶ cm/s

Could you now look at the following compound, please?
Give its Papp value. Item: Cc1ccc(S(=O)(=O)N[C@@H](CC(=O)NC(C)(C)C)C(=O)NCCNC(=O)c2ccccc2F)cc1
10.5 ×10⁻⁶ cm/s

====

# protocol details: Clearance in mouse liver microsomes
# Assay type: ADME, Microsome
# condition set: read-out: CLH
Recorded microsomal CLint values for a group of molecules are listed next.
Could you give me the number in µL/min/mg? Just the number is fine.

Reference set (4 entries):
COc1cccc(C(=O)NCCNC(=O)[C@H](CC(=O)NC(C)(C)C)NS(=O)(=O)c2ccc(C)cc2)c1 = 142
C#Cc1cccc(C(=O)NCCNC(=O)[C@H](CC(=O)NC(C)(C)C)NS(=O)(=O)c2ccc(C)cc2)c1 = 97
Cc1ccc(S(=O)(=O)N[C@@H](CC(=O)NC(C)(C)C)C(=O)NCCNC(=O)c2ccc(F)cc2)cc1 = 49
Cc1ccc(S(=O)(=O)N[C@@H](CC(=O)NC(C)(C)C)C(=O)NCCNC(=O)c2ccccc2F)cc1 = 141

Note: attention shifts to another entry.
Which microsomal CLint reading was recorded for the molecule Cc1ccc(S(=O)(=O)N[C@@H](CC(=O)NC(C)(C)C)C(=O)NCCNC(=O)c2ccccc2)cc1 ?
64

====

Listed compounds paired with reported IC50
# system tested: Proteasome subunit beta type-8 (Homo sapiens, UniProt P28062)
# Sequence (P28062 whole entry): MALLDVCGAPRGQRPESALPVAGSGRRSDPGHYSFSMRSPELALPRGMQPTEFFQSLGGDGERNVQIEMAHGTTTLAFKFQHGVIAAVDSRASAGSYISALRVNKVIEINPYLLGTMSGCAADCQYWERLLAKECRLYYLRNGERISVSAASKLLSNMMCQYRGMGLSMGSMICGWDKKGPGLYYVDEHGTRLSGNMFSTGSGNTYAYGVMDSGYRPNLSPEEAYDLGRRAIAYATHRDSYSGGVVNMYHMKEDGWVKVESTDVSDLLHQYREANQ
# protocol details: Inhibition of human beta5 20S immunoproteasome using Ac-ANW-AMC as substrate
Your answer should be a plain number; it is taken to be in nM.

// below: answered compounds
Cc1ccc(S(=O)(=O)N[C@@H](CC(=O)NC(C)(C)C)C(=O)NCCNC(=O)c2cccc(O)c2)cc1 = 475
Cc1ccc(S(=O)(=O)N[C@@H](CC(=O)NC(C)(C)C)C(=O)NCCNC(=O)Nc2ccccc2)cc1 = 2090
Cc1ccc(S(=O)(=O)N[C@@H](CC(=O)NC(C)(C)C)C(=O)NCCNC(=O)c2ccccn2)cc1 = 2090
Cc1ccc(S(=O)(=O)N[C@@H](CC(=O)NC(C)(C)C)C(=O)NCCNC(=O)c2cc(C)ccn2)cc1 = 3110
Cc1ccc(S(=O)(=O)N[C@@H](CC(=O)NC(C)(C)C)C(=O)NCCNC(=O)c2ccc(F)c(F)c2)cc1 = 195

# query: IC50 of entry Cc1ccc(S(=O)(=O)N[C@@H](CC(=O)NC(C)(C)C)C(=O)NCCNC(=O)c2cccc(C(C)C)c2)cc1
200

Similarly, Cc1ccc(S(=O)(=O)N[C@@H](CC(=O)NC(C)(C)C)C(=O)NCCNC(=O)c2cc(C)ccc2F)cc1 ?
384

Cool, now Cc1ccc(S(=O)(=O)N[C@@H](CC(=O)NC(C)(C)C)C(=O)NCCNC(=O)NCc2ccccc2)cc1
2350

# iterate: Cc1ccc(S(=O)(=O)N[C@@H](CC(=O)NC(C)(C)C)C(=O)NCCNC(=O)c2ccccc2O)cc1
24

Next record, please: Cc1ccc(S(=O)(=O)N[C@@H](CC(=O)NC(C)(C)C)C(=O)NCCNC(=O)c2cc(Cl)ccn2)cc1
3560

Another compound: Cc1ccc(S(=O)(=O)N[C@@H](CC(=O)NC(C)(C)C)C(=O)NCCNC(=O)c2cccc(F)c2)cc1
128

Follow-up item: Cc1ccc(S(=O)(=O)N[C@@H](CC(=O)NC(C)(C)C)C(=O)NCCNC(=O)c2ccc(F)cc2)cc1
179

// repeat for Cc1ccc(S(=O)(=O)N[C@@H](CC(=O)NC(C)(C)C)C(=O)NCCNC(=O)c2cccc(C#N)c2)cc1 and report
4690

====

# System: beta5 subunit of human 20S constitutive proteasome
# protocol details: Selectivity ratio of IC50 for human beta5 20S constitutive proteasome to IC50 for Plasmodium falciparum 20S proteasome beta5 subunit
# Assay type: toxicity
# condition set: read-out: Ratio IC50
readout label: selectivity ratio

Here's what some known entries look like.
Cc1ccc(S(=O)(=O)N[C@@H](CC(=O)NC(C)(C)C)C(=O)NCCNC(=O)Nc2ccccc2)cc1 = > 3.9
Cc1ccc(S(=O)(=O)N[C@@H](CC(=O)NC(C)(C)C)C(=O)NCCNS(=O)(=O)c2ccccc2)cc1 = > 6.6

Then this compound:
// selectivity ratio lookup, key: Cc1ccc(S(=O)(=O)N[C@@H](CC(=O)NC(C)(C)C)C(=O)NCCNC(=O)c2ccccc2)cc1
68
